Origin of the recorded values: patent US20140322233A1

tested.system: T1, human GCC, full length with myc tag (293-GCC#2 cells) (human, UniProt P25092 24-1073)
T1 construct: not shown: myc tag
T1 sequence (P25092 24-1073): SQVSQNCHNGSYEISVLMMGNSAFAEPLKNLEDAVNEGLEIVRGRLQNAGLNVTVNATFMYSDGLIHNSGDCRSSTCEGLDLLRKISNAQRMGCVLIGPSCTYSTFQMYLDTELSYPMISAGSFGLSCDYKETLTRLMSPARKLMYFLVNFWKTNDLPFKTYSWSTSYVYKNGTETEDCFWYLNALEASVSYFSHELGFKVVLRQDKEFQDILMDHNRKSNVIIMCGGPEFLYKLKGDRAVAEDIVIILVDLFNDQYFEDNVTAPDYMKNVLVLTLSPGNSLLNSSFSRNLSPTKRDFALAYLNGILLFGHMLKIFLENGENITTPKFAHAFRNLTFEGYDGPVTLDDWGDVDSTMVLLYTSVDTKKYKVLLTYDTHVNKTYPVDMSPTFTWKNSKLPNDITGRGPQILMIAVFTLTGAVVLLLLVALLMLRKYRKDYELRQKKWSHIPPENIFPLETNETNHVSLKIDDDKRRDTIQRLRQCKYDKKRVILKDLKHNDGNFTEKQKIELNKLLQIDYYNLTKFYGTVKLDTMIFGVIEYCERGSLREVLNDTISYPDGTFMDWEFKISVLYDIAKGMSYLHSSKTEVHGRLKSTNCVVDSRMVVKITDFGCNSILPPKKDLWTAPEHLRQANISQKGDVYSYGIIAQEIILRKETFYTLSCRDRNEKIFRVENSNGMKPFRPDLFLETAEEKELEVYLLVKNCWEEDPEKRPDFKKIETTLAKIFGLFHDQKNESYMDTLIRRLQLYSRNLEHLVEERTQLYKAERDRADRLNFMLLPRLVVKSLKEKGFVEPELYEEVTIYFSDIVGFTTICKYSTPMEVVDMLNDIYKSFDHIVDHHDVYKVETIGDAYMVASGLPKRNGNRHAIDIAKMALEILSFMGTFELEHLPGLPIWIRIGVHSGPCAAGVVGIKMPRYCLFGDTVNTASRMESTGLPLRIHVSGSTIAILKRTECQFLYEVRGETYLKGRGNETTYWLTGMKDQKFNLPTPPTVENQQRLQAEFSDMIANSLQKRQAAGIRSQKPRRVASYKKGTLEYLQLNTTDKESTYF
assay.details: indirect immunofluorescence flow cytometry, 293 GCC #2 cells;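 note: cells exposed to the test antibodies for 1 h on ice before flow cytometric readout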
measurement.label: MFI at 0.25 µg/ml
Answer with a bare number; do not write a unit.

Requested field: MFI at 0.25 µg/ml. Item: 5F9-mc-MMAF (antibody, V domains shown, mc-MMAF drug-linker on reduced interchain cysteines of the antibody; positions not given, Antibody drug conjugate of 5F9; average loading about four) VH: QVQLQQWGAGLLKPSETLSLTCAVFGGSFSGYYWSWIRQPPGKGLEWIGEINHRGNTNDNPSLKSRVTISVDTSKNQFALKLSSVTAADTAVYYCARERGYTYGNFDHWGQGTLVTVSS VL: EIVMTQSPATLSVSPGERATLSCRASQSVSRNLAWYQQKPGQAPRLLIYGASTRATGIPARFSGSGSGTEFTLTIGSLQSEDFAVYYCQQYKTWPRTFGQGTNVEIK
7400

Can you handle 5F9-vc-MMAF (antibody, V domains shown, mc-vc-MMAF drug-linker on reduced interchain cysteines of the antibody; positions not given, Antibody drug conjugate of 5F9; average loading about four) VH: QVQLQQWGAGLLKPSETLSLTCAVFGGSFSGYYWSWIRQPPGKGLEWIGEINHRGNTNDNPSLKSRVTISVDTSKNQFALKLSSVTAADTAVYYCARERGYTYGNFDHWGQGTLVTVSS VL: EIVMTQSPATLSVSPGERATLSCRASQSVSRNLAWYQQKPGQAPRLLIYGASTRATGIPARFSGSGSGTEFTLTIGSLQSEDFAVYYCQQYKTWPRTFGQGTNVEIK next?
7560

Please do the same for 5F9-vc-MMAE (antibody, V domains shown, mc-vc-MMAE drug-linker on reduced interchain cysteines of the antibody; positions not given, Antibody drug conjugate of 5F9) VH: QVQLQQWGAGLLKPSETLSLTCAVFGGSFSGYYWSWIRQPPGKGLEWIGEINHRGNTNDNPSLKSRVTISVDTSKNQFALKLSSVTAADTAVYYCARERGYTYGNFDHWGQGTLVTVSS VL: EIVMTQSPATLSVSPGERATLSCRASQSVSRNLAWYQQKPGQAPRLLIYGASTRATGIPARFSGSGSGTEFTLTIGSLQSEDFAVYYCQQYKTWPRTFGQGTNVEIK as well.
7300

Repeat with mAb 5F9 (antibody, V domains shown, Human; hybridoma product is IgG2, kappa; also called 46.5F9.8.2; Prep A 5F9) VH: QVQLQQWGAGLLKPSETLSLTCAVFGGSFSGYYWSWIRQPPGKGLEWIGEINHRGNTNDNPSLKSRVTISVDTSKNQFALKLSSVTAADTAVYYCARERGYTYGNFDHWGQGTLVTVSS VL: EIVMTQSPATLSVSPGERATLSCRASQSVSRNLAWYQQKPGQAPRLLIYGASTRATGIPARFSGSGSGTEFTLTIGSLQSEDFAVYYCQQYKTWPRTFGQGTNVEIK
7820
